- Measurement Target: Stromelysin-1 (Homo sapiens)
- Sequence (P08254 whole entry): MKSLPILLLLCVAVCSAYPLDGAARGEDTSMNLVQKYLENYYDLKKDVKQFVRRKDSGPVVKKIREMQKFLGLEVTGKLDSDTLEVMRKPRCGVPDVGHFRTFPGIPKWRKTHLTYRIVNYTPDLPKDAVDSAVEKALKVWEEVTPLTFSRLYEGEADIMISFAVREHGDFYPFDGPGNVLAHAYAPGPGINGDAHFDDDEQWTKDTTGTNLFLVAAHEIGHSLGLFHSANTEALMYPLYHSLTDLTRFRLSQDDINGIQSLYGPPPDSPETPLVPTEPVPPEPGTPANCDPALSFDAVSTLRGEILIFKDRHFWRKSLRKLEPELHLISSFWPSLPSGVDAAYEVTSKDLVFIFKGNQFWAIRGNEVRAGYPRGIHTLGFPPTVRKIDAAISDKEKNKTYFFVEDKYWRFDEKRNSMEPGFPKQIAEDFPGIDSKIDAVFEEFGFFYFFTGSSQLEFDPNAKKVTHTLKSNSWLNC
- Protocol Notes: Inhibition of MMP-3 (unknown origin)
Measured Attribute: log10 IC50 (log10 of the value in nM)
Field: value | Transform: log10 | Quantity: IC50 | Unit: nM

Worked cases, log10 IC50 given:
INSERT INTO results (molecule, measurement_target, measured_attribute, observed) VALUES
  ('O=C(O)CS(=O)(=O)c1ccc(-c2ccccc2)cc1', 'Stromelysin-1 (Homo sapiens)', 'log10 IC50', 5.56),
  ('CC(C)ON([C@@H](CCNC(=O)OCc1ccccc1)C(=O)NO)S(=O)(=O)c1ccc(-c2ccccc2)cc1', 'Stromelysin-1 (Homo sapiens)', 'log10 IC50', 2.11),
  ('CN(C)c1ccc(O)c2c1C[C@H]1C[C@H]3[C@H](N(C)C)C(O)=C(C(N)=O)C(=O)[C@@]3(O)C(O)=C1C2=O', 'Stromelysin-1 (Homo sapiens)', 'log10 IC50', 5.46),
  ('C=CC[C@H](C(=O)NO)C(CC(C)C)C(=O)N[C@@H](Cc1ccccc1)C(=O)NC (some centres not stated)', 'Stromelysin-1 (Homo sapiens)', 'log10 IC50', 1.48),
  ('O=C(NO)C(Cc1ccccc1)NS(=O)(=O)c1ccc(-c2cn(-c3ccc(-c4ccccc4)cc3)nn2)cc1 (configuration not stated)', 'Stromelysin-1 (Homo sapiens)', 'log10 IC50', 1.70),
  ('COc1ccc(S(=O)(=O)N(Cc2ccccc2)[C@@H](C(=O)NO)C(C)C)cc1', 'Stromelysin-1 (Homo sapiens)', 'log10 IC50', 1.11),
  ('C[C@H]1c2cccc(O)c2C(=O)C2=C(O)[C@]3(O)C(=O)C(C(N)=O)=C(O)[C@@H](N(C)C)[C@@H]3[C@@H](O)[C@@H]21', 'Stromelysin-1 (Homo sapiens)', 'log10 IC50', 4.51),
  ('COc1ccc(-c2cn(-c3ccc(S(=O)(=O)C4(C(=O)NO)CCOCC4)cc3)nn2)cc1', 'Stromelysin-1 (Homo sapiens)', 'log10 IC50', 0.98),
  ('O=C(NO)C1(S(=O)(=O)c2ccc(-n3cc(-c4ccc(-c5ccccc5)cc4)nn3)cc2)CCOCC1', 'Stromelysin-1 (Homo sapiens)', 'log10 IC50', 1.24),
  ('O=C(CS(=O)(=O)c1ccc(-c2ccccc2)cc1)NO', 'Stromelysin-1 (Homo sapiens)', 'log10 IC50', 2.30);

Your task in this section: give log10 IC50 for each listed record.
1. CNC(=O)[C@@H](NC(=O)[C@H](CC(C)C)NC(=O)[C@H](S)CCN1C(=O)N(C)C(C)(C)C1=O)C(C)(C)C
2. CN(C)c1ccc(-c2cn(-c3ccc(S(=O)(=O)C4(C(=O)NO)CCOCC4)cc3)nn2)cc1

1: 2.20; 2: 1.70

* * *

Read-out record for Stromelysin-2 (Homo sapiens, UniProt P09238): Ki

INSERT INTO assay_data (query_smiles, observed) VALUES
  ('NC(=O)[C@@H](CCC(=O)O)NC(=O)[C@@H](CCC(=O)O)NC(=O)[C@@H](Cc1cc(-c2ccc(-c3cccc(Cl)c3)cc2)no1)CP(=O)(O)c1ccc(Br)cc1', '18.4 µM');

# context switch: different compound, same Ki
Tested system Stromelysin-2 (Homo sapiens, UniProt P09238); Ki recorded for NC(=O)[C@H](CCC(=O)O)NC(=O)[C@@H](CCC(=O)O)NC(=O)CCc1cc(-c2ccc(-c3cccc(Cl)c3)cc2)no1 was 0.048 µM
